Tested on: MCF7
procedure.text: Antiproliferative activity against human MCF7 cells after 48 hrs by sulforhodamine B assay
Assay type: functional, cell-based
stated.conditions: MCF7, 48 h
property.name: log10 of IC50 (log10 of the value in µM)
Friendly reminder: values = log10 of IC50, unit µM.

Look up log10 of IC50 with MCF7 for this molecule: COc1cc(Nc2nc(C3=CCN(C(=O)c4ccncc4)CC3)nc(N3CCOCC3)n2)cc(OC)c1OC
1.51

Look up log10 of IC50 with MCF7 for this molecule: COc1cc(Nc2nc(C3=CCN(C(=O)c4cccnc4Cl)CC3)nc(N3CCOCC3)n2)cc(OC)c1OC
1.48

Look up log10 of IC50 with MCF7 for this molecule: COc1cc(Nc2nc(C3=CCN(C(=O)N4CCCCC4)CC3)nc(N3CCOCC3)n2)cc(OC)c1OC
1.61

Look up log10 of IC50 with MCF7 for this molecule: COc1cc(Nc2nc(C3=CCN(C(=O)c4ccc(Br)cc4)CC3)nc(N3CCOCC3)n2)cc(OC)c1OC
1.60

Look up log10 of IC50 with MCF7 for this molecule: COc1cc(Nc2nc(C3=CCN(C(=O)Nc4ccc(Cl)cc4)CC3)nc(N3CCOCC3)n2)cc(OC)c1OC
1.46

Look up log10 of IC50 with MCF7 for this molecule: COc1cc(Nc2nc(C3=CCN(C(=O)C(F)(F)F)CC3)nc(N3CCOCC3)n2)cc(OC)c1OC
1.68

Look up log10 of IC50 with MCF7 for this molecule: COc1cc(Nc2nc(C3=CCN(S(=O)(=O)c4ccc(Cl)cc4)CC3)nc(N3CCOCC3)n2)cc(OC)c1OC
1.49

Look up log10 of IC50 with MCF7 for this molecule: COc1cc(Nc2nc(C3=CCN(S(C)(=O)=O)CC3)nc(N3CCOCC3)n2)cc(OC)c1OC
1.46

Look up log10 of IC50 with MCF7 for this molecule: COc1cc(Nc2nc(C3=CCN(C(=O)N4CCOCC4)CC3)nc(N3CCOCC3)n2)cc(OC)c1OC
1.58

Look up log10 of IC50 with MCF7 for this molecule: COc1cc(Nc2nc(C3=CCN(C(=O)N4CCN(C)CC4)CC3)nc(N3CCOCC3)n2)cc(OC)c1OC
1.61

Look up log10 of IC50 with MCF7 for this molecule: COc1cc(Nc2nc(C3=CCN(C(C)=O)CC3)nc(N3CCOCC3)n2)cc(OC)c1OC
1.60

Look up log10 of IC50 with MCF7 for this molecule: COc1ccc(/C=C\c2cc(OC)c(OC)c(OC)c2)cc1O
0.62

Look up log10 of IC50 with MCF7 for this molecule: COc1cc(Nc2nc(C3=CCN(C(=O)N4CCN(c5ccc(C)cc5)CC4)CC3)nc(N3CCOCC3)n2)cc(OC)c1OC
1.69

---

Tested on: MCF7
procedure.text: Antiproliferative activity against human MCF7 cells after 48 hrs by sulforhodamine B assay
Format: functional, cell-based
stated.conditions: MCF7, 48 h
property.name: pIC50
Schema: pIC50 number; meaning minus log10 of the concentration expressed in molar units.

Look up pIC50 with MCF7 for this molecule: COc1ccc(S(=O)(=O)N2CC=C(c3nc(Nc4cc(OC)c(OC)c(OC)c4)nc(N4CCOCC4)n3)CC2)cc1
4.30

Look up pIC50 with MCF7 for this molecule: COc1cc(Nc2nc(C3=CCN(S(=O)(=O)c4ccc(F)cc4)CC3)nc(N3CCOCC3)n2)cc(OC)c1OC
4.53

Look up pIC50 with MCF7 for this molecule: COc1cc(Nc2nc(C3=CCN(C(=O)CC#N)CC3)nc(N3CCOCC3)n2)cc(OC)c1OC
4.39

Look up pIC50 with MCF7 for this molecule: COc1cc(Nc2nc(C3=CCN(S(=O)(=O)c4ccc(C(F)(F)F)cc4)CC3)nc(N3CCOCC3)n2)cc(OC)c1OC
4.39

Look up pIC50 with MCF7 for this molecule: COc1cc(Nc2nc(C3=CCN(S(=O)(=O)c4ccc(Br)cc4)CC3)nc(N3CCOCC3)n2)cc(OC)c1OC
4.49
